Reported GI50 by item:
test system: COLO 205; experiment: NCI tumour cell line growth inhibition, 48 h
Active and inactive are the calls of the source. No stated cut-off is given here; in the data, active = GI50 up to about 1.1 µM and inactive = higher.
Readout Kind: GI50

> print(dat)
                                   compound              reading
1          O=c1c(-c2ccccc2Cl)coc2cc(F)ccc12   44.7 µM (inactive)
2                   CCOC(=O)CC(=O)Sc1ccccc1   25.9 µM (inactive)
3      O=C(c1ccccc1)C1S(=O)(=O)OCCOS1(=O)=O  > 100 µM (inactive)
4  c1ccc2cc(OCC3CO3)c(OCC3CO3)cc2c1 (configuration not stated)   12.8 µM (inactive)
5                   C[C@H](O)CCC(=O)c1ccoc1  > 100 µM (inactive)
6  O=C1C(CN2CCOCC2)CCCC1CN1CCOCC1 (configuration not stated)    3.1 µM (inactive)
7                         Cc1cccc2ns[s+]c12  > 100 µM (inactive)

This collection of values is drawn from ChEMBL document CHEMBL1201862.
